Biological target: Gal(b1-4)GlcNAc(b1-3)[Gal(b1-4)GlcNAc(b1-6)]Gal(b1-4)GlcNAc
Assay: glycan array binding signal (z-score within array); higher = stronger binding
Settings: glycan notation: IUPAC condensed, linker removed
This is one part of a sample in which the strongest signals are shown more often than they occur.
MEASURED_ENDPOINT: glycan array binding signal (z-score)
Give a plain numeric answer without units written out.

Prompt: Would you mind telling me what glycan array binding signal (z-score) value was observed for CLEC9a (Mus musculus), Q8BRU4 (protein) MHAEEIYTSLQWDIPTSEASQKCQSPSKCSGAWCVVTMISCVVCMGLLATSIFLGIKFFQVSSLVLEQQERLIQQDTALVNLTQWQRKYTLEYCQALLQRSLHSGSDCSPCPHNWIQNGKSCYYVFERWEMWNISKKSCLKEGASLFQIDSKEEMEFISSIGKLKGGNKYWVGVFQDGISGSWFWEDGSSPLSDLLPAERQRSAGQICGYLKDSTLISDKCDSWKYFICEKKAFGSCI ?
Completion: 0.779

Prompt: Also need Cohesin-hDCIR (Homo sapiens) (protein) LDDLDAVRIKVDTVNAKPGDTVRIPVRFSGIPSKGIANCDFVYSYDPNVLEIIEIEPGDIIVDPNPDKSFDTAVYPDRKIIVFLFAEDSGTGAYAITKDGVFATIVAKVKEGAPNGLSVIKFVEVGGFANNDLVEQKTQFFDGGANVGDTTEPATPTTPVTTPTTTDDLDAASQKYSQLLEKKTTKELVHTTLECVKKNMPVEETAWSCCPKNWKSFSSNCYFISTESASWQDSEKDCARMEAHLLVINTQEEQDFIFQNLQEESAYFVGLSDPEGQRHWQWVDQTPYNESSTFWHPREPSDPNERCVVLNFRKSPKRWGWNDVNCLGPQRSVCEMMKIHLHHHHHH , thanks.
Completion: -0.335

Prompt: Also need SUN4 (Saccharomyces cerevisiae), P53616 (protein) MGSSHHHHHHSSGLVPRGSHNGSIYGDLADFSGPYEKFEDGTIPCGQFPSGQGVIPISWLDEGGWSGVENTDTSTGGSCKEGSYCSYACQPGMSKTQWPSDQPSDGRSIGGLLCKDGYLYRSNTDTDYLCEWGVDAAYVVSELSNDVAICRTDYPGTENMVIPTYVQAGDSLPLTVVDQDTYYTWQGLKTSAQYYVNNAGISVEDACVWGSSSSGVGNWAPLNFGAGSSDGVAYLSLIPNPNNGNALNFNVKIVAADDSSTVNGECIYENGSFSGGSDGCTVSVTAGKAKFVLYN , thanks.
Completion: -1.28

Prompt: Also need OS9 (Arabidopsis thaliana) (protein) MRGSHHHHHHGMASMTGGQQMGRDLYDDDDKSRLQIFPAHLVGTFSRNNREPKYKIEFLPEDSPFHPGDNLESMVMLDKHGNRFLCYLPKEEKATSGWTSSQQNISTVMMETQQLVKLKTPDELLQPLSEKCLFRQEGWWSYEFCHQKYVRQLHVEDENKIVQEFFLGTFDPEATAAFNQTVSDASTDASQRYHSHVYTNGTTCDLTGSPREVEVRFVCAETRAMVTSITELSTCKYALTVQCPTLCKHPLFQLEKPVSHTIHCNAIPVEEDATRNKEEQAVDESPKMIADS , thanks.
Completion: 1.43

Prompt: Also need GNA (Galanthus nivalis), P30617 (protein) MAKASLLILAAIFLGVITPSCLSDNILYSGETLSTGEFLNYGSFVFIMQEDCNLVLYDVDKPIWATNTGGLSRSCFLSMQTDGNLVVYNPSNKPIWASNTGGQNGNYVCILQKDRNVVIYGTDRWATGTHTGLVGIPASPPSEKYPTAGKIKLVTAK , thanks.
Completion: -0.21
